Data provenance: patent US20210196796A1

Target: T1, orthogonal hCD122 receptor (hoRb), hCD122 with H133D and Y134F (human, UniProt P14784 27-550)
T1 sequence: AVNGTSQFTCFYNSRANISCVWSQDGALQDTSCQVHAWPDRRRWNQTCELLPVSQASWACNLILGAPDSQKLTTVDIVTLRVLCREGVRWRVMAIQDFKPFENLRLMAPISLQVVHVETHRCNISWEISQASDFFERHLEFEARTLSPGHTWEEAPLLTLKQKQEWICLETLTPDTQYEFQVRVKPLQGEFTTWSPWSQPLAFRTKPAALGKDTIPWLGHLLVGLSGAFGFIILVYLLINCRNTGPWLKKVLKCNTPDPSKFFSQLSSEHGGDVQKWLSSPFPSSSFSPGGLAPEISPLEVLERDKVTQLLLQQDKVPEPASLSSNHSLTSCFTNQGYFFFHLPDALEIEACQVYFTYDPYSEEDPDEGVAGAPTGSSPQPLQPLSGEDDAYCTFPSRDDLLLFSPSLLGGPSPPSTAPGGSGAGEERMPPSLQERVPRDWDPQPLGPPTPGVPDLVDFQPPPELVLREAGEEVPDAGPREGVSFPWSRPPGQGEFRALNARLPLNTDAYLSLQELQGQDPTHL
Assay: cell-based or functional assay
Recorded NKL Ortho Proliferation Signal 1:50, one value per entry.
Answer with a number only.

Worked cases, answers included:
L18T, SQVLKA (ligand) APTSSSTKKTQLQLSQLTVLLKAILNGINNYKNPKLTRMLTFKFYMPKKATELKHLQCLEEELKPLEEVLNLAQSKNFHLRPRDLISNINVIVLELKGSETTFMCEYADETATIVEFLNRWITFCQSIISTLT = 11300
ΔM23, SQVLK- (ligand) APTSSSTKKTQLQLSQLLVLLKILNGINNYKNPKLTRMLTFKFYMPKKATELKHLQCLEEELKPLEEVLNLAQSKNFHLRPRDLISNINVIVLELKGSETTFMCEYADETATIVEFLNRWITFCQSIISTLT = 8950
Q126G, SQVLKA (ligand) APTSSSTKKTQLQLSQLLVLLKAILNGINNYKNPKLTRMLTFKFYMPKKATELKHLQCLEEELKPLEEVLNLAQSKNFHLRPRDLISNINVIVLELKGSETTFMCEYADETATIVEFLNRWITFCGSIISTLT = 6050

Below: the item to evaluate.
Recorded NKL Ortho Proliferation Signal 1:50 for L18W, SQVLKA (ligand) APTSSSTKKTQLQLSQLWVLLKAILNGINNYKNPKLTRMLTFKFYMPKKATELKHLQCLEEELKPLEEVLNLAQSKNFHLRPRDLISNINVIVLELKGSETTFMCEYADETATIVEFLNRWITFCQSIISTLT , please?
10700
